Measured pest or weed control at 100 ppm, listed per entry.
System: Septoria tritici—SEPTTR
assay overview: Leaf Blotch of Wheat, in vivo whole plant, 24 Hour Protectant
conditions: Zymoseptoria tritici, 24 h, 100 ppm spray, wheat, 24 hour protectant; control of fungal infection vs untreated plants; read-out: SEPTTR in vivo 1 Day Protectant

Would you please look over these solved cases?
compound	tested on	measured endpoint	result
COC(=O)C(CO)NC(=O)c1nccc(OC)c1O (stereo not drawn)	Septoria tritici—SEPTTR	pest or weed control at 100 ppm	< 25%
COc1ccnc(C(=O)Nc2ccc(/C(=N/O)c3cccc(C(F)(F)F)c3)cc2)c1O	Septoria tritici—SEPTTR	pest or weed control at 100 ppm	25 to 74%
COc1ccnc(C(=O)NC2COC(=O)[C@H]3CCCC[C@@H]3C(=O)OC2)c1O	Septoria tritici—SEPTTR	pest or weed control at 100 ppm	< 25%
COc1ccnc(C(=O)N[C@H]2COC(=O)[C@H](Oc3ccccc3)[C@@H](OC(=O)C(C)C)[C@H](C)OC2=O)c1O	Septoria tritici—SEPTTR	pest or weed control at 100 ppm	25 to 74%
COc1ccnc(C(=O)NC2COC(=O)CC(c3ccccc3)C(=O)OC2)c1O (stereo not drawn)	Septoria tritici—SEPTTR	pest or weed control at 100 ppm	25 to 74%
COc1ccnc(C(=O)Nc2ccccc2Oc2cccc(Cl)c2)c1O	Septoria tritici—SEPTTR	pest or weed control at 100 ppm	< 25%
COc1ccnc(C(=O)N[C@H]2COC(=O)[C@H](Cc3ccccc3)[C@@H](OC(=O)C3C(C)CCCC3C)[C@H](C)OC2=O)c1O (stereo partly drawn)	Septoria tritici—SEPTTR	pest or weed control at 100 ppm	25 to 74%
COc1ccnc(C(=O)N[C@@H]2C(=O)O[C@@H](C)C[C@@H](C)C(=O)O[C@@H]2C)c1O	Septoria tritici—SEPTTR	pest or weed control at 100 ppm	< 25%

Problem: Given COc1ccnc(C(=O)Nc2cccc(NC(=O)c3ccc(C(F)(F)F)cc3)c2)c1O , state its recorded pest or weed control at 100 ppm.
Result: 25 to 74%

Problem: Given CCCCCCCCCCCCC(=O)O[C@H]1[C@H](C)OC(=O)[C@@H](NC(=O)c2nccc(OC)c2O)COC(=O)[C@@H]1Cc1ccccc1 , state its recorded pest or weed control at 100 ppm.
Result: 25 to 74%

# credit: patent US6706740B2
